Consider the following molecules and their measured remaining at 4 h, 5 μM readings.
experimental_protocol: In vitro stability in rat plasma
Type: in vitro ADME
Starred links: 1 amine or outer side, 2 acyl side, 3 side chain; linkers in the order of their positions; H or OH if unused. Non-standard residues stand in square brackets, D forms with d. Residues, ends and D or L forms follow the SMILES beside them. *: point of attachment. Phe(4-Cl) = N[C@@H](Cc1ccc(Cl)cc1)C(=O)O; γGlu = O=C(O)[C@H](CCC(=O)[*:2])N[*:1]; Tridecanoyl = CCCCCCCCCCCCC(=O)*; Nle = CCCC[C@H](N)C(=O)O; AEEA = NCCOCCOCC(=O)O
Output spec: scalar in %, unitless text.

[[record]]
molecule = "CCCCCCCCCCCCC(=O)N[C@@H](CCC(=O)NCCOCCOCC(=O)NCCOCCOCC(=O)N[C@@H](CCC(N)=O)C(=O)N[C@@H](CCCNC(=N)N)C(=O)N1CCC[C@H]1C(=O)N[C@@H](CCC(=O)O)C(=O)N[C@@H](CC(C)C)C(=O)N[C@@H](CO)C(=O)N[C@@H](Cc1c[nH]cn1)C(=O)N[C@@H](CCCCN)C(=O)NCC(=O)N1CCC[C@H]1C(=O)N[C@@H](CCCC)C(=O)N1CCC[C@H]1C(=O)N[C@@H](Cc1ccc(Cl)cc1)C(=O)O)C(=O)O [compound 477] ({Tridecanoyl-γGlu-AEEA-AEEA}-QRPELSHKGP[Nle]P[Phe(4-Cl)]-OH)"
value_reported = 64


Attention now turns to another entry.
Query CCCCCCCCCCCCC(=O)N[C@@H](CCC(=O)NCCOCCOCC(=O)NCCOCCOCC(=O)N[C@@H](CCC(N)=O)C(=O)N[C@@H](CCCNC(=N)N)C(=O)N1CCC[C@H]1C(=O)N[C@@H](CCCCNC(=N)N)C(=O)N[C@@H](CC(C)C)C(=O)N[C@@H](CO)C(=O)N[C@@H](Cc1c[nH]cn1)C(=O)N[C@@H](CCCCN)C(=O)NCC(=O)N1CCC[C@H]1C(=O)N[C@@H](CCCC)C(=O)N1CCC[C@H]1C(=O)N[C@@H](Cc1ccc(Cl)cc1)C(=O)O)C(=O)O yields remaining at 4 h, 5 μM of 64

====

experimental_protocol: In vitro stability in rat plasma
Assay type: in vitro ADME
Starred links: 1 amine or outer side, 2 acyl side, 3 side chain; linkers in the order of their positions; H or OH if unused. Non-standard residues stand in square brackets, D forms with d. Residues, ends and D or L forms follow the SMILES beside them. ξ: configuration not given here. *: point of attachment. Phe(4-Cl) = N[C@@H](Cc1ccc(Cl)cc1)C(=O)O; γGlu = O=C(O)[C@H](CCC(=O)[*:2])N[*:1]; Tridecanoyl = CCCCCCCCCCCCC(=O)*; hArg = N=C(N)NCCCC[C@H](N)C(=O)O; Pip = O=C(O)[C@@H]1CCCCN1; Nle = CCCC[C@H](N)C(=O)O; ξαMeP = CC1(C(=O)O)CCCN1; ξβ3hV = CC(C)C(N)CC(=O)O; AEEA = NCCOCCOCC(=O)O
attribute_measured: remaining at 4 h, 5 μM

CCCCCCCCCCCCC(=O)N[C@@H](CCC(=O)NCCOCCOCC(=O)NCCOCCOCC(=O)N[C@H](CCC(N)=O)C(=O)N[C@@H](CCCNC(=N)N)C(=O)N1CCCC1(C)C(=O)N[C@@H](CCCCNC(=N)N)C(=O)NC(CC(=O)N[C@@H](CO)C(=O)N[C@@H](Cc1c[nH]cn1)C(=O)N[C@@H](CCCCN)C(=O)NCC(=O)N1CCCC[C@H]1C(=O)N[C@@H](CCCC)C(=O)N[C@@H](Cc1ccc(Cl)cc1)C(=O)O)C(C)C)C(=O)O (stereo partly drawn) [compound 501] ({Tridecanoyl-γGlu-AEEA-AEEA}-[dQ]R[ξαMeP][hArg][ξβ3hV]SHKG[Pip][Nle][Phe(4-Cl)]-OH) has a reported remaining at 4 h, 5 μM of > 90%
